Data provenance: the Human Domainome abundance scans (Beltran et al. 2025)

B1: CD2-associated protein, residues 109 to 169; numbered along this chain, Q9Y5K6 (parent)
chain: KKRQCKVLFEYIPQNEDELELKVGDIIDINEEVEEGWWSGTLNNKLGLFPSNFVKELEVTD

Variants of: B1
Assay: abundance fitness (aPCA) (normalised: wild type 0, dead -1); higher = more abundant; growth selection in yeast, the domain comes from the species named
Conditions: Homo sapiens
In this section we review reported abundance fitness values for a set of variants.

| sequence data | abundance fitness |
| --- | --- |
| KKRQCKVLFEYIPQNEDELELKVGDIIDINEEVEEGWWSGTLNNKLGLFPSNFCKELEVTD [V54C] | 0.125 |
| KKRQCKVLFEYIPQNEDELELKVGDIWDINEEVEEGWWSGTLNNKLGLFPSNFVKELEVTD [I27W] | -0.913 |
| KKRQCKVLFEYIPQNEDELELKVGDIIDINEEVEEGWWSGTLNNKLGLFPSNFFKELEVTD [V54F] | -0.416 |
| KKRQCKVLFEYIPQNEDELELKVGDIIDIPEEVEEGWWSGTLNNKLGLFPSNFVKELEVTD [N30P] | -0.438 |
| KKRQCKVLFEYIPQNEDELELKVGDIIDINEEVHEGWWSGTLNNKLGLFPSNFVKELEVTD [E34H] | 0.179 |
| KKRQCKVLFEYIPQNEDELELKVGDIIDINLEVEEGWWSGTLNNKLGLFPSNFVKELEVTD [E31L] | -0.367 |
| KKRQCKVLFEYIPQNEDELELKVGDIIDINEEVEEGLWSGTLNNKLGLFPSNFVKELEVTD [W37L] | -0.344 |
| KKRQCKVLFEYIPQNEDELELKVGDIIDINEEVEEGWWSGTLNNKLGLFPTNFVKELEVTD [S51T] | -0.047 |
| KKRQCKVLFEYIPQNEDELELKVGDIIDIEEEVEEGWWSGTLNNKLGLFPSNFVKELEVTD [N30E] | 0.302 |
| KKRQCKVLFEYIPQNEDELELKVGDIIDWNEEVEEGWWSGTLNNKLGLFPSNFVKELEVTD [I29W] | -0.693 |
| KKRQCKVLFEYIPQNEDELELKVGDIIDINEEVEEGWWSGTLNNKLGLFPSNFVKENEVTD [L57N] | -0.69 |
| KKRQCKVLFEYIPQNEDELELKVGDIIDINEEVEEGWWSGTLNNKLGLEPSNFVKELEVTD [F49E] | -0.872 |
| KKRQCKVLFEYIPQNEDELELKVGDIIDINEEVEEGWWSGHLNNKLGLFPSNFVKELEVTD [T41H] | -0.158 |
| KKRQCKVLFEYIPQNEDELELKVGDIIDINEEIEEGWWSGTLNNKLGLFPSNFVKELEVTD [V33I] | 0.129 |
| KKRQCKVLFEYIPQNEDELELKVGDIIDINEEVEENWWSGTLNNKLGLFPSNFVKELEVTD [G36N] | -0.004 |
| KKRQCKVLFEYIPQNEDELELKVGDIIDINEEVEEGWWSGTLNNKLGLFMSNFVKELEVTD [P50M] | -0.57 |
| KKRQCKVLFEYIPQNEDELELKVGDIIDINEEVEEGWWSGTLNQKLGLFPSNFVKELEVTD [N44Q] | -0.183 |
| KKRQCKVLFEYIPQNEDELELKVGDIIDINEEVEEGWWSGTLNNKLGLFPSNFVKELEVTE [D61E] | 0.283 |
| KKRQCKVLFEYIPQNEDELELKVGDIIDINEEVEEGWWSGTLNNLLGLFPSNFVKELEVTD [K45L] | -0.638 |
| KKRQCKVLFEYIPQNEDELELKVGDIIDINEEVEEGWWSGTLNNKLGLFPSNFVKWLEVTD [E56W] | -0.769 |
| KKRQCKVLFEYIPQNEDELELKVGDIIDINEEVEEGWWSGTLNLKLGLFPSNFVKELEVTD [N44L] | -0.489 |
| KKRQCKVLFEYIPQNEDELELKVGDGIDINEEVEEGWWSGTLNNKLGLFPSNFVKELEVTD [I26G] | -1.03 |
| KKRQCKVLFEYIPQNEDELELKVGDIIDINEEVAEGWWSGTLNNKLGLFPSNFVKELEVTD [E34A] | -0.167 |
| KKRQCKVLFEYIPQNEDELELKVGDIIDISEEVEEGWWSGTLNNKLGLFPSNFVKELEVTD [N30S] | -0.11 |
| KKRQCKVLFEYIPQNEDELELKVGDIIDINEEVEEGWWSGTLNNKLGLFPSCFVKELEVTD [N52C] | 0.114 |
| KKRQCKVLFEYIPQNEDELELKVGDIIDINEEVEEGWVSGTLNNKLGLFPSNFVKELEVTD [W38V] | -0.46 |
| KKRQCKVLFEYIPQNEDELELKVGDIIDINEEVEEGWWSGTLNNKLGLFPSWFVKELEVTD [N52W] | -0.454 |
| KKRQCKVLFEYIPQNEDELELKVGDIIDINEEVEEGWWSGTLNNKLGLFPSNFVKDLEVTD [E56D] | -0.505 |
| KKRQCKVLFEYIPQNEDELELKVGDIIDINEEVEEGWWSGTRNNKLGLFPSNFVKELEVTD [L42R] | -0.388 |
| KKRQCKVLFEYIPQNEDELELKVGDIIDINEEVEEGWWSGTLNNKLGLFPSNFVKELGVTD [E58G] | 0.094 |
| KKRQCKVLFEYIPQNEDELELKVGDIIDINEEQEEGWWSGTLNNKLGLFPSNFVKELEVTD [V33Q] | -0.55 |
| KKRQCKVLFEYIPQNEDELELKVGDIIDINEEVEEGWWSGTLNNKLGLFPSNFVKELEPTD [V59P] | -0.138 |
| KKRQCKVLFEYIPQNEDELELKVGDIIDINEEVESGWWSGTLNNKLGLFPSNFVKELEVTD [E35S] | 0.213 |
| KKRQCKVLFEYIPQNEDELELKVGDIIDINEEVEEGWWSGTLNNKLGLFPSQFVKELEVTD [N52Q] | -0.255 |
| KKRQCKVLFEYIPQNEDELELKVGDIIDINEEVEAGWWSGTLNNKLGLFPSNFVKELEVTD [E35A] | -0.226 |
| KKRQCKVLFEYIPQNEDELELKVGDIIDINEEVEEGWWSGTLNNKLGLFPSNFVKELNVTD [E58N] | -0.057 |
| KKRQCKVLFEYIPQNEDELELKVGDIIDINEEVEEGWWSGTLNNKDGLFPSNFVKELEVTD [L46D] | 0.034 |
| KKRQCKVLFEYIPQNEDELELKVGDIIDINEEVEEGWWSFTLNNKLGLFPSNFVKELEVTD [G40F] | -0.477 |
| KKRQCKVLFEYIPQNEDELELKVGDIIDINEEVEEGWWSGTLNNKLGFFPSNFVKELEVTD [L48F] | -0.19 |
| KKRQCKVLFEYIPQNEDELELKVGDIIDINEEVEEGWWSGTLNNKSGLFPSNFVKELEVTD [L46S] | 0.113 |
| KKRQCKVLFEYIPQNEDELELKVGDKIDINEEVEEGWWSGTLNNKLGLFPSNFVKELEVTD [I26K] | -0.624 |
| KKRQCKVLFEYIPQNEDELELKVGDIVDINEEVEEGWWSGTLNNKLGLFPSNFVKELEVTD [I27V] | 0.03 |
| KKRQCKVLFEYIPQNEDELELKVGDIIDINEEVEEGWWSGTLNNKLGQFPSNFVKELEVTD [L48Q] | -0.298 |
| KKRQCKVLFEYIPQNEDELELKVGDIIDINEEVEEGWWSGTLNNKLGLFPSNMVKELEVTD [F53M] | 0.057 |
| KKRQCKVLFEYIPQNEDELELKVGDIIDINEEVEEGWWSGTLNNKLGLFPSNFVKELEVLD [T60L] | 0.01 |
